Here the recorded normalized growth is given for each entry.
Test: chemical genetic growth profiling, strain panel (AID 1159580);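 note: tested at 20 µM; growth read once vehicle control cultures reached saturation at 30 °C; 1 = growth at the plate median or of vehicle wells; lower values mean less growth of the strain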
Settings: S. cerevisiae deletion strains, growth OD, locus YOR265W, strain rbl2, stronger effect = lower value
About 2,000 (36%) of roughly 5,500 compounds were called active. Inconclusive results (about 18%) are left out. This is one part of the list.

[
  {
    "Molecule": "OC[C@H]1O[C@@H](O[C@H]2[C@H](O)[C@@H](O)[C@@H](O)O[C@@H]2CO)[C@H](O)[C@@H](O)[C@@H]1O",
    "normalized growth": 1
  },
  {
    "Molecule": "CC(C)(C)NC[C@H](O)c1ccc(O)c(CO)c1",
    "normalized growth": 1.01
  },
  {
    "Molecule": "CC(C)CCCC(C)[C@H]1CCC2C3CC=C4CC(=O)CC[C@]4(C)C3CC[C@@]21C (some centres undefined)",
    "normalized growth": 0.986
  },
  {
    "Molecule": "CCCOc1ccc2nc(NC(=O)OC)[nH]c2c1",
    "normalized growth": 1.01
  },
  {
    "Molecule": "N[C@@H](CCC(=O)N[C@@H](CS)C(=O)NCC(=O)O)C(=O)O",
    "normalized growth": 0.996
  },
  {
    "Molecule": "CCCN(CCC)S(=O)(=O)c1ccc(C(=O)O)cc1",
    "normalized growth": 0.992
  },
  {
    "Molecule": "CC(C)CCCC(C)C1CCC2C3CC(=O)[C@H]4C[C@@H](O)CC[C@]4(C)C3CC[C@]12C (some centres undefined)",
    "normalized growth": 1
  },
  {
    "Molecule": "O=C(O)c1ccc(S(=O)(=O)N(Cl)Cl)cc1",
    "normalized growth": 0.981
  },
  {
    "Molecule": "CC(C)CCCC(C)[C@H]1CCC2C3CC=C4C[C@@H](O)CC[C@]4(C)C3CC[C@@]21C (some centres undefined)",
    "normalized growth": 0.989
  }
]

* * *

Experiment: chemical genetic growth profiling, strain panel (AID 1159580);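 note: tested at 20 µM; growth read once vehicle control cultures reached saturation at 30 °C; 1 = growth at the plate median or of vehicle wells; lower values mean less growth of the strain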
Conditions: S. cerevisiae deletion strains, growth OD, locus YNL298W, strain CLA4, stronger effect = lower value
The campaign covered roughly 5,500 compounds. About 2,000 (36%) were called active. Inconclusive results (about 18%) are left out. Some of the results follow.

[
  {
    "Compound": "CC(=O)Oc1ccc(C(c2ccc(OC(C)=O)cc2)c2ccccn2)cc1",
    "normalized growth": 0.989
  },
  {
    "Compound": "CCN(CC)CCOC(=O)C1(C2CCCCC2)CCCCC1",
    "normalized growth": 1
  },
  {
    "Compound": "CC(C)=CC1C(C(=O)O)C1(C)C (stereo unspecified)",
    "normalized growth": 0.99
  },
  {
    "Compound": "CCOC(=O)[C@H](CCc1ccccc1)N[C@@H](C)C(=O)N1CCC[C@H]1C(=O)O",
    "normalized growth": 1.04
  },
  {
    "Compound": "NC1=NCCN1CC(=O)O",
    "normalized growth": 0.996
  },
  {
    "Compound": "CC12CCC3C(CC3(C)C)C(C)(CCC1=O)O2 (stereo unspecified)",
    "normalized growth": 1.02
  },
  {
    "Compound": "O=C(O)c1cc(O)c2c(c1)[C@@H]([C@H]1c3cc(C(=O)O)cc(O)c3C(=O)c3c(O[C@H]4O[C@H](CO)[C@@H](O)[C@H](O)[C@H]4O)cccc31)c1cccc(O[C@H]3O[C@H](CO)[C@@H](O)[C@H](O)[C@H]3O)c1C2=O",
    "normalized growth": 0.993
  },
  {
    "Compound": "CC(=O)OCC(=O)[C@@]1(O)[C@H](C)CC2C3CCC4=CC(=O)C=C[C@]4(C)[C@@]3(F)[C@@H](O)C[C@@]21C (stereo partly specified)",
    "normalized growth": 0.989
  },
  {
    "Compound": "CN(C)CCCN1c2ccccc2Sc2ccc(Cl)cc21",
    "normalized growth": 1.02
  },
  {
    "Compound": "C[n+]1ccccc1/C=N/O",
    "normalized growth": 1.01
  },
  {
    "Compound": "CN(C)CCCN1c2ccccc2Sc2ccccc21",
    "normalized growth": 1
  },
  {
    "Compound": "CN(C)CCCN1c2ccccc2CCc2ccc(Cl)cc21",
    "normalized growth": 0.999
  },
  {
    "Compound": "CCCc1cc(=O)[nH]c(=S)[nH]1",
    "normalized growth": 1.01
  },
  {
    "Compound": "CC(=O)Oc1cccc(O)c1",
    "normalized growth": 1.03
  },
  {
    "Compound": "C=C(C)C1CCC(C)(O)C2CC3OC3(C)C2C1 (stereo unspecified)",
    "normalized growth": 1.01
  },
  {
    "Compound": "CC(=O)N[C@@H](Cc1c[nH]c2ccccc12)C(N)=O",
    "normalized growth": 0.994
  },
  {
    "Compound": "Cc1c(C)c2c(c(C)c1O)CCC(C)(CCCC(C)CCCC(C)CCCC(C)C)O2 (stereo unspecified)",
    "normalized growth": 0.965
  },
  {
    "Compound": "CCN(CC)CCOC(=O)C(c1ccccc1)C1CCCCC1 (stereo unspecified)",
    "normalized growth": 0.969
  },
  {
    "Compound": "Nc1ccc(C(=O)O)cc1",
    "normalized growth": 1.01
  },
  {
    "Compound": "CN(C)CCCN1c2ccccc2CCc2ccccc21",
    "normalized growth": 1
  },
  {
    "Compound": "OC[C@H]1O[C@@H](O[C@@H]2[C@@H](CO)O[C@](O)(CO)[C@H]2O)[C@H](O)[C@@H](O)[C@H]1O",
    "normalized growth": 0.975
  }
]
